System: T1, His-tagged cynomolgus monkey B7-H3 (cynomolgus monkey)
T1 chain: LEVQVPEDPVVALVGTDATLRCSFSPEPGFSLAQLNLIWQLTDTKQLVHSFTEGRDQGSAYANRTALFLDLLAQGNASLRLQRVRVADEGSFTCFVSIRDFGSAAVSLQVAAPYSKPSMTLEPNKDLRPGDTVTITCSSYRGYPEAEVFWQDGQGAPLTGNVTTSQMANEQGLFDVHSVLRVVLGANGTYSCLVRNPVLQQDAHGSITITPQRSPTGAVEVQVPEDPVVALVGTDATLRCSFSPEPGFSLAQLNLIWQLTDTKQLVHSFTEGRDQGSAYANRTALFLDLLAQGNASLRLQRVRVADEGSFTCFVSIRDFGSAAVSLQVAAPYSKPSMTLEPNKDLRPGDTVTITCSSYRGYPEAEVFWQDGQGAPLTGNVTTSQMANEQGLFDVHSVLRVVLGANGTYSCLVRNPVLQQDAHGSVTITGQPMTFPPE
Assay Explanation: ELISA, coated His-tagged antigen, scFv-Fc 1 ug/ml
Quantity Measured: ELISA OD450 @ 1 ug/ml (OD450)
Express your answer in OD450, writing the number without its unit.

Look over these answered cases.
INSERT INTO assay_data (binder, quantity_measured, numeric_result) VALUES
  ('40579p1.F7 (scFv, V domains shown, Tested as scFv-Fc (Expi293 supernatant)) VH: EVQLLESGGGLVQPGGSLRLSCAASGFTFSDYYMSWVRQAPGKGLEWVSGISISYGGNAYYADSVKGRFTVSRDNSKNTLYLQMNSLRAEDTAVYYCGRDRSPYQYRSMDVWGQGTTVTVSS VL: EIVLTQSPGTLSLSPGERATLTCRASQSVGDFLAWYQQKPGQAPRLLIYGASTRAAGIPARFRGSGSGTDFTLTISSLQSEDFAVYYCQQYKNWPPLTFGGGTKVEIK', 'ELISA OD450 @ 1 ug/ml', 2.28),
  ('40633p1.1.F2 (scFv, V domains shown, Tested as scFv-Fc (Expi293 supernatant)) VH: EVQLLESGGGLVQPGGSLRLSCVASGLTFNGFAMTWVRQAPGKGLEWVSGISWNSGSIYYADSVKGRFTISRDNSKNTVYLQMSSLRAEDTAIYYCAKNWNDYYNSMDVWGQGTTVTVSS VL: QSVLTQPPSASGTPGQRVTISCSGSRSNIGTKYVYWYQQFPGTAPKLLIYTTDRRPSGVPDRFSGSKSGTSASLAISGLQSEDEADYYCSAWDDRLNAWVFGGGTKLTVL', 'ELISA OD450 @ 1 ug/ml', 1.77),
  ('40633p1.1.B12 (scFv, V domains shown, Tested as scFv-Fc (Expi293 supernatant)) VH: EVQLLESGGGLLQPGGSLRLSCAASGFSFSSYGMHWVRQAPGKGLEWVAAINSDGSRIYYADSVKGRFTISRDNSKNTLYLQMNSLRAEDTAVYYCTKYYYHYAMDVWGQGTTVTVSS VL: QSVLTQPPSASGTPGQRVTISCSGSRSDIGATTVNWYQQLPGTAPKLLTYQSHLRPSGVPDRFSGSKSGTSASLAISGLQSEDEADYYCASWDASLNTWVFGGGTKLTVL', 'ELISA OD450 @ 1 ug/ml', 1.72),
  ('40633p1.1.G5 (scFv, V domains shown, Tested as scFv-Fc (Expi293 supernatant)) VH: EVQLLESGGGLVQPGGSLRLSCAASGFIVNYYGMSWVRQPPGKGLEWVSAIKQDGSEKYYADSVKGRFTISRDNSKTTLYLQMNSLRAEDTAVYYCARHWNDYSNGMNVWGQGTTVTVSS VL: QSVLTQPPSASGTPGQRVTISCSGSWSNIGSYNSHWYQKLPGTAPKLLIYTTDRRPSGVPDRFSGSKSGTSASLAISGLQSEDEADYYCGTWDDSLNVWVFGGGTKLTVL', 'ELISA OD450 @ 1 ug/ml', 1.49),
  ('40633p1.1.A11 (scFv, V domains shown, Tested as scFv-Fc (Expi293 supernatant)) VH: EVQLLESGGDLVQPGGSLRLSCAASGFTFNTYWMNWVRQAPGKGLEWVAGINSKGGVTYYADSVKGRFTISRDNSKNTLYLQMNSLRAEDTAVYYCADWNDYDIMDVWGQGTTVTVSS VL: QSVLTQPPSASGTPGQTITISCSGSSSNVGRRTVNWYQQLPGTAPKLLIYTNAQRPSGVPDRFSGSKSGTSASLAISGLQSEDEADYYCATWDDSLNAWVFGGGTKLTVL', 'ELISA OD450 @ 1 ug/ml', 1.77);

For record 40633p1.1.B3 (scFv, V domains shown, Tested as scFv-Fc (Expi293 supernatant)) VH: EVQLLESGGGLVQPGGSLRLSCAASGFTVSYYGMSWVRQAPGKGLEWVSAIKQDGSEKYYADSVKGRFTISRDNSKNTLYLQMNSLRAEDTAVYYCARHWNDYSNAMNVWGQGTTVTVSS VL: QSVLTQPPSASGTPGQRVTISCSGSTSNIGRESVYWYQQLPGTAPKLLIYTIDQRPSGVPDRFSGSKSGTSASLAISGLQSEDEADYYCGTWDDSLNAWVFGGGTKLTVL the listed ELISA OD450 @ 1 ug/ml is 1.89

For record 40633p1.2.A10 (scFv, V domains shown, Tested as scFv-Fc (Expi293 supernatant)) VH: EVQLLESGGGLVQPGGSLRLSCAASGFTVSYYGMSWVRQAPGKGLEWVSVIKQDGSEEYYADSVKGRFTISRDNSKNTLYLQMNSLRAEDTAVYYCARHWNDYSNGMNVWGQGTTVTVSS VL: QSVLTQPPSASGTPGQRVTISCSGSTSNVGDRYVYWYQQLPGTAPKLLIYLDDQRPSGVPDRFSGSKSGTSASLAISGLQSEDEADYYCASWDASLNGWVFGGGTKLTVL the listed ELISA OD450 @ 1 ug/ml is 2.14

For record 40511p1.1.D6 (scFv, V domains shown, Tested as scFv-Fc (Expi293 supernatant)) VH: DVQLVESGGGVVRPGESLTLSCAASGFTINSYAVSWVRQAPGEGLEWVSGISGSGVRYYADSVKGRFTISRDNSNNTLYLQMNSLRAEDTAVYYCARSNKVTWNNFFDYWGLGTLVTVSS VL: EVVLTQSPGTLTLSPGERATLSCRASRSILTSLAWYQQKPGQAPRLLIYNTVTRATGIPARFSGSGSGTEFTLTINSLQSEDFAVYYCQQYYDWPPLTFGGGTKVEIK the listed ELISA OD450 @ 1 ug/ml is 2.11

For record 40633p1.1.A7 (scFv, V domains shown, Tested as scFv-Fc (Expi293 supernatant)) VH: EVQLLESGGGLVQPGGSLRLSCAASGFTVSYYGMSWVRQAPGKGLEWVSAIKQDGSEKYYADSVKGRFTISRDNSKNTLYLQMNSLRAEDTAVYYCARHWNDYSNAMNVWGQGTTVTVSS VL: QSVLTQPPSASGTPGQRVTISCSGSTSNIGRESVYWYQQLPGTAPKLLIYTIDQRPSGVPDRFSGSKSGTSASLAISGLQSEDEAVYYCASWDASLNGWVFGGGTKLTVL the listed ELISA OD450 @ 1 ug/ml is 1.7

For record 40511p1.1.D8 (scFv, V domains shown, Tested as scFv-Fc (Expi293 supernatant)) VH: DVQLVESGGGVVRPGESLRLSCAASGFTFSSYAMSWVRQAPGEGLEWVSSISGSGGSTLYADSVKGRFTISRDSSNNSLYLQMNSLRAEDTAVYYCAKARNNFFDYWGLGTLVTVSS VL: EIVLTQSPGTLTLSPGERATLSCRASRSILTSLAWYQQRPGQAPRLLIYGANSRATGIPDRFSGSGSGTEFTLTISSLQSEDFAVYYCQQYYDWLTITFGGGTKVEIK the listed ELISA OD450 @ 1 ug/ml is 2.02
